Data credit: ChEMBL document CHEMBL4007510

tested-system: Adenosine receptor A1 (Homo sapiens, UniProt P30542)
Sequence (P30542 whole entry): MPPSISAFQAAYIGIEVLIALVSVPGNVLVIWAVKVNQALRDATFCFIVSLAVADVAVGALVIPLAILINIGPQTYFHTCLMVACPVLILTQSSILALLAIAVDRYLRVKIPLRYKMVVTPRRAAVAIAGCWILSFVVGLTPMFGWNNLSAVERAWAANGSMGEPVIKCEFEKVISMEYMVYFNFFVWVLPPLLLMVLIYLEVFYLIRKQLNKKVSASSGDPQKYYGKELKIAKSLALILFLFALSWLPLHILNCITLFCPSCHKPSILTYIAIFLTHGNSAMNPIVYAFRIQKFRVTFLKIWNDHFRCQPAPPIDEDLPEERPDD
So basically, if Ki comes in under 200 nM it's label 1, and if it's 200 nM or more it's label 0.

smiles	assigned-class
CNC(=O)[C@H]1[Se][C@@H](n2cnc3c(NC4CCCC4)nc(Cl)nc32)[C@H](O)[C@@H]1O	label 1
CNC(=O)[C@H]1[Se][C@@H](n2cnc3c(N[C@@H]4C[C@H]4c4ccccc4)ncnc32)[C@H](O)[C@@H]1O	label 0
CNC(=O)[C@H]1[Se][C@@H](n2cnc3c(NC4CCC4)nc(Cl)nc32)[C@H](O)[C@@H]1O	label 1
CNC(=O)[C@H]1[Se][C@@H](n2cnc3c(NCc4cccc(F)c4)ncnc32)[C@H](O)[C@@H]1O	label 0
CNC(=O)[C@H]1[Se][C@@H](n2cnc3c(NCc4cccc(I)c4)nc(Cl)nc32)[C@H](O)[C@@H]1O	label 0

Ask: I wonder whether `CNC(=O)[C@H]1[Se][C@@H](n2cnc3c(NCc4cccc(Cl)c4)nc(Cl)nc32)[C@H](O)[C@@H]1O` has Ki below 200 nM. Can you tell?
Reply: label 0

Ask: I wonder whether `CNC(=O)[C@H]1[Se][C@@H](n2cnc3c(NCc4ccccc4Cl)ncnc32)[C@H](O)[C@@H]1O` has Ki below 200 nM. Can you tell?
Reply: label 0
